The reported numbers originate from ChEMBL document CHEMBL1201862.

Entries and their IC50
TARGET_OR_SYSTEM: Cysteine protease ATG4B (Homo sapiens, UniProt Q9Y4P1);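 further: Fluorescence-based dose-response confirmation assay measuring inhibition of ATG4B activity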
Sequence (Q9Y4P1 whole entry): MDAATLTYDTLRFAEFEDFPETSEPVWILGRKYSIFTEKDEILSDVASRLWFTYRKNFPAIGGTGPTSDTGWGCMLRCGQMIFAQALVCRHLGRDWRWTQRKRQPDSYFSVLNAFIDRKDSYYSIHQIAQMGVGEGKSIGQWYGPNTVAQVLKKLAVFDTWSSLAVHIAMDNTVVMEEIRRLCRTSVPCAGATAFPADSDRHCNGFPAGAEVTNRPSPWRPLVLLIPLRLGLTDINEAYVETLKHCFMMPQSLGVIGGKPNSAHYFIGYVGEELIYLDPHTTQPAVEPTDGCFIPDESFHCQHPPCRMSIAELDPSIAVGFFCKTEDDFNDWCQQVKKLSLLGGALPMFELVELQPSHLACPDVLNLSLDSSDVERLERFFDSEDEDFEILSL
Format: functional
The source made the active and inactive calls.

COMPOUND_STRUCTURE	IC50
O=C(NC(=S)NCCC1=CCCCC1)c1ccc(Br)o1	15.9 µM (active)

# input I would be grateful if you could share the reported IC50 for "O=C(O)c1cccc(CSc2nc(-c3ccc(Cl)cc3)cc(C(F)(F)F)n2)c1" .
# output 12.8 µM (active)

# input I would be grateful if you could share the reported IC50 for "O=C(Cn1cccc1C(=O)c1ccccc1)NCCC1=CCCCC1" .
# output 20.1 µM (inactive)

# input I would be grateful if you could share the reported IC50 for "Cc1nc2c(=O)n(C)c(=O)nc-2n(C)n1" .
# output 3.73 µM (active)

----------
Tested on: P388;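 further: compound exposure lasted 48 hours before growth was measured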
RUN_DESCRIPTION: cells
Assay type: functional
CONDITION_PARAMETERS: Mus musculus
Active and inactive are the calls of the source.
# output must be one of TRUE = active, FALSE = inactive

Solved entries:
COMPOUND	TARGET_OR_SYSTEM	CLASS_NAME
COc1cc([C@@H]2c3cc4c(c(O)c3C[C@H]3COC(=O)[C@@H]32)OCO4)cc(OC)c1O	P388	TRUE
COc1ccc(C2COc3cc(OC(C)=O)c(OC(C)=O)cc3C2)cc1 (configuration not stated)	P388	FALSE
CC1=NCCc2cc3[nH]c4ccccc4c3cc21	P388	FALSE
O=C1C2=C(C3=NCCc4c[nH]c1c43)c1c(cc(Br)c(O)c1Br)CCN2	P388	FALSE
CCOC(=O)CN(CC)C(=O)NC12CC3CC(CC(C3)C1)C2	P388	FALSE
Nc1nccc2c1ncn2C1C=C(CO)C(O)C1O (configuration not stated)	P388	TRUE

# input Fill in: this test's call for "O=c1ccn([C@@H]2C=C(CO)[C@@H](O)[C@H]2O)c(=O)[nH]1" is ___
# output FALSE

----------
TARGET_OR_SYSTEM: Induced myeloid leukemia cell differentiation protein Mcl-1 (Homo sapiens)
Sequence (Q07820 whole entry): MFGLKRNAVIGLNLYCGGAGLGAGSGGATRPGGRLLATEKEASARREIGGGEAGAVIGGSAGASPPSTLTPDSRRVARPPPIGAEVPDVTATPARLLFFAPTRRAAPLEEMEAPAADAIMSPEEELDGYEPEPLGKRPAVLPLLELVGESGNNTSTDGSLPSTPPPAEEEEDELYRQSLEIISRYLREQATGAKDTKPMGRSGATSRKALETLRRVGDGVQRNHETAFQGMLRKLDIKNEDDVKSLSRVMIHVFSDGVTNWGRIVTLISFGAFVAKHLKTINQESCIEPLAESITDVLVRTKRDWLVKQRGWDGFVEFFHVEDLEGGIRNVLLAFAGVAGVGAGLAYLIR
Type: functional
Activity calls are given as the source filed them.
READOUT_KIND: IC50

// solved cases for IC50 follow
MOLECULE	TARGET_OR_SYSTEM	RECORDED_VALUE
Nc1scc2c(C(=O)N/N=C/c3ccc(Cl)cc3)nn(-c3ccccc3)c(=O)c12	Induced myeloid leukemia cell differentiation protein Mcl-1 (Homo sapiens)	1.95 µM (active)
O=C1/C(=C/c2ccccn2)SC(=S)N1c1ccc(O)cc1	Induced myeloid leukemia cell differentiation protein Mcl-1 (Homo sapiens)	5.85 µM (active)

Now take the following molecule into account.
# input I would be grateful if you could share the reported IC50 for "Nc1ccc(N)c(C(=O)O)c1" .
# output 1.59 µM (active)

----------
Test system: H4
RUN_DESCRIPTION: Luminescence Cell-Based Dose Response HTS to Identify Activators of 5'UTR Stem-Loop Driven Prion Protein mRNA Translation in H4 Neuroglioblastoma Cells. [Related pubchem assays: 1829 (Project Summary), 1814 (Primary HTS)]
Format: functional
CONDITION_PARAMETERS: Homo sapiens
Activity calls are given as the source filed them.
Entries and their EC50

// solved cases for EC50 follow
COMPOUND	EC50
COc1ccc(/C=C/C2=NC(=C\N(C)C)/C(=O)O2)cc1	8.24 µM (active)
O=C(/C=C/c1c(F)cccc1Cl)Nc1nc2ccccc2[nH]1	10.4 µM (active)
COc1cccc(NCc2cc(=O)oc3cc(-c4ccccc4)c(O)cc23)c1	20 µM (active)
CC1Cc2cc(C(=O)C3=C(O)C(=O)N(Cc4ccco4)C3c3cccs3)ccc2O1 (stereo unspecified)	35.2 µM (active)
CC(NC(=O)c1ccc([N+](=O)[O-])o1)C12CC3CC(CC(C3)C1)C2 (stereo unspecified)	13.8 µM (active)

Now take the following compound into account.
# input Observed EC50 on H4 for "O=C(NC(=S)NCCC1=CCCCC1)c1ccc(Br)o1" , please.
# output 18.1 µM (active)
